Test: Cmax in ICR mouse at 2 mg/kg, iv measured by LC-MS/MS analysis
Format: ADME, organism-based
Set-up: dose 2 mg/kg, route iv
Conditions: in vivo
METRIC: Cmax (ng/mL)

CC(C)(c1ccc(OCC2CCN(C(=O)CCCNc3ccc4c(c3)C(=O)N(C3CCC(=O)NC3=O)C4=O)CC2)cc1)c1ccc(OC[C@H](O)CCl)cc1 (stereo partly drawn): 518
CC(C)(c1ccc(OCC2CCN(CC3CCN(c4ccc5c(c4)C(=O)N(C4CCC(=O)NC4=O)C5=O)CC3)CC2)cc1)c1ccc(OC[C@H](O)CCl)cc1 (stereo partly drawn): 782
CC(C)(c1ccc(OCC2CCN(CC3CN(C4CCN(c5cccc6c5C(=O)N(C5CCC(=O)NC5=O)C6=O)CC4)C3)CC2)cc1)c1ccc(OC[C@H](O)CCl)cc1 (stereo partly drawn): 662

====

Assay: Cmax in beagle dog at 1 mg/kg, iv measured by LC-MS/MS analysis
Format: ADME, organism-based, Canis lupus familiaris
Parameters: dose 1 mg/kg, route iv
Details: in vivo
METRIC: Cmax (ng/mL)
Kindly provide the numeric value in ng/mL only, without the unit symbol.

Entry CC(C)(c1ccc(OCC2CCN(CC3CCN(c4ccc5c(c4)C(=O)N(C4CCC(=O)NC4=O)C5=O)CC3)CC2)cc1)c1ccc(OC[C@H](O)CCl)cc1 (stereo partly specified) needs its Cmax filled in; supply it.
150

====

Test: Clearance in ICR mouse at 2 mg/kg, iv measured by LC-MS/MS analysis
Assay type: ADME, organism-based
Details: in vivo
METRIC: clearance (mL/min/kg)

[A] CC(C)(c1ccc(OCC2CCN(CC3CN(C4CCN(c5cccc6c5C(=O)N(C5CCC(=O)NC5=O)C6=O)CC4)C3)CC2)cc1)c1ccc(OC[C@H](O)CCl)cc1 (stereo partly drawn)
[B] CC(C)(c1ccc(OCC2CCN(C(=O)CCCNc3ccc4c(c3)C(=O)N(C3CCC(=O)NC3=O)C4=O)CC2)cc1)c1ccc(OC[C@H](O)CCl)cc1 (stereo partly drawn)
[C] CC(C)(c1ccc(OCC2CCN(CC3CCN(c4ccc5c(c4)C(=O)N(C4CCC(=O)NC4=O)C5=O)CC3)CC2)cc1)c1ccc(OC[C@H](O)CCl)cc1 (stereo partly drawn)
From the records above, write out the order of decreasing clearance. Reply with the labels, ordered as the question asks.
B, A, C
(B: 111 mL/min/kg, A: 38.6 mL/min/kg, C: 9.9 mL/min/kg)

====

Assay: AUC(0 to t) in ICR mouse at 2 mg/kg, iv measured by LC-MS/MS analysis
Format: ADME, organism-based
Set-up: dose 2 mg/kg, route iv
Conditions: in vivo
METRIC: AUC(0-t) (ng·h/mL)

[I] CC(C)(c1ccc(OCC2CCN(CC3CCN(c4ccc5c(c4)C(=O)N(C4CCC(=O)NC4=O)C5=O)CC3)CC2)cc1)c1ccc(OC[C@H](O)CCl)cc1 (stereo partly drawn)
[II] CC(C)(c1ccc(OCC2CCN(C(=O)CCCNc3ccc4c(c3)C(=O)N(C3CCC(=O)NC3=O)C4=O)CC2)cc1)c1ccc(OC[C@H](O)CCl)cc1 (stereo partly drawn)
[III] CC(C)(c1ccc(OCC2CCN(CC3CN(C4CCN(c5cccc6c5C(=O)N(C5CCC(=O)NC5=O)C6=O)CC4)C3)CC2)cc1)c1ccc(OC[C@H](O)CCl)cc1 (stereo partly drawn)
// ascending sort on AUC(0-t) for the entries above Reply with the labels, ordered as the question asks.
II, III, I
(II: 303 ng·h/mL, III: 645 ng·h/mL, I: 3020 ng·h/mL)

Every entry's value here was drawn from ChEMBL document CHEMBL5325501.
